Ref: paper PMC10460844

tested on: rat erythrocytes; experiment: Hemolysis assay; type: cell-based; conditions: red cells of rat
Where a name gives a salt, the structure may show the parent alone. Square brackets hold non-standard residues; d marks the D form. Peptide text beside a SMILES is read from it. Gly(N(CH2)2(3-indolyl)) = O=C(O)CNCCc1c[nH]c2ccccc12; Nspe = C[C@H](NCC(=O)O)c1ccccc1; Nlys = NCCCCNCC(=O)O
observable: HC10 (µM)
Answers are plain numbers, in µM.

C[C@@H](c1ccccc1)N(CC(N)=O)C(=O)CN(CCCCN)C(=O)CN(CCCCN)C(=O)CN(C(=O)CN(C(=O)CN(CCCCN)C(=O)CN(C(=O)CN(C(=O)CN(CCCCN)C(=O)CN(CCc1c[nH]c2ccccc12)C(=O)CN(CCc1c[nH]c2ccccc12)C(=O)CNCCCCN)[C@@H](C)c1ccccc1)[C@@H](C)c1ccccc1)[C@@H](C)c1ccccc1)[C@@H](C)c1ccccc1 [32-AcOH] = 83.0

Can you give me HC10 for all of these, one by one?
1. C[C@@H](c1ccccc1)N(CC(N)=O)C(=O)CN(C(=O)CN(CCCCN)C(=O)CN(C(=O)CN(CCc1c[nH]c2ccccc12)C(=O)CN(CCCCN)C(=O)CN(CCc1c[nH]c2ccccc12)C(=O)CN(C(=O)CN(CCCCN)C(=O)CN(C(=O)CN(C(=O)CNCCCCN)[C@@H](C)c1ccccc1)[C@@H](C)c1ccccc1)[C@@H](C)c1ccccc1)[C@@H](C)c1ccccc1)[C@@H](C)c1ccccc1 [peptoid 15]
2. C[C@@H](c1ccccc1)N(CC(=O)N(CCCCN)CC(=O)N(CC(=O)N(CC(=O)N(CCCCN)CC(=O)N(CC(=O)N(CC(=O)N(CCCCN)CC(N)=O)[C@@H](C)c1ccccc1)[C@@H](C)c1ccccc1)[C@@H](C)c1ccccc1)[C@@H](C)c1ccccc1)C(=O)CN(C(=O)CN(CCCCN)C(=O)CN(CCc1c[nH]c2ccccc12)C(=O)CNCCc1c[nH]c2ccccc12)[C@@H](C)c1ccccc1 [37-HCl] (H-[Gly(N(CH2)2(3-indolyl))][Gly(N(CH2)2(3-indolyl))][Nlys][Nspe][Nspe][Nlys][Nspe][Nspe][Nlys][Nspe][Nspe][Nlys]-NH2)

*A*
1. 20.5
2. 14.4
